SI (stoichiometry of inhibition) overview
Target Desc: T1, Recombinant human tissue kallikrein 1 (KLK1), wild type (human, UniProt P06870 25-262)
T1 construct: tissue kallikrein 1 (KLK1), human, residues 25-262; Vector pE-SUMO3; also called kallikrein-related peptidase 1
Test Summary: stoichiometry of inhibition by titration of residual protease activity; 1 µM protease with increasing kallistatin variant in PBS, 0.1% PEG 8000, 2 h, 37 °C; residual activity on 0.2 mM H-D-Val-Leu-Arg-AMC; intercept on the abscissa
Condition Summary: both partners purified
Endpoint Name: SI (stoichiometry of inhibition)

Binder	Value Reported
rKAL-307/308D (natural protein, human, UniProt P29622 45-427, looked up, kallistatin (SERPINA4), human, residues 45-427; double mutant of K307 and R308 to Asp; also called rKAL-K307/308D; source: E. coli BL21 (DE3), purified (HisTrap FF crude, SENP2 digestion, HiTrap SP)) GSPSLKIAPANADFAFRFYYLIASETPGKNIFFSPLSISAAYAMLSLGACSHSRSQILEGLGFNLTELSESDVHRGFQHLLHTLNLPGHGLETRVGSALFLSHNLKFLAKFLNDTMAVYEAKLFHTNFYDTVGTIQLINDHVKKETRGKIVDLVSELKKDVLMVLVNYIYFKALWEKPFISSRTTPKDFYVDENTTVRVPMMLQDQEHHWYLHDRYLPCSVLRMDYKGDATVFFILPNQGKMREIEEVLTPEMLMRWNNLLRDDNFYKKLELHLPKFSISGSYVLDQILPRLGFTDLFSKWADLSGITKQQKLEASKSFHKATLDVDEAGTEAAAATSFAIKFFSAQTNRHILRFNRPFLVVIFSTSTQSVLFLGKVVDPTKP	1.5
rKAL-R259D (natural protein, human, UniProt P29622 45-427, looked up, kallistatin (SERPINA4), human, residues 45-427; source: E. coli BL21 (DE3), purified (HisTrap FF crude, SENP2 digestion, HiTrap SP)) GSPSLKIAPANADFAFRFYYLIASETPGKNIFFSPLSISAAYAMLSLGACSHSRSQILEGLGFNLTELSESDVHRGFQHLLHTLNLPGHGLETRVGSALFLSHNLKFLAKFLNDTMAVYEAKLFHTNFYDTVGTIQLINDHVKKETRGKIVDLVSELKKDVLMVLVNYIYFKALWEKPFISSRTTPKDFYVDENTTVRVPMMLQDQEHHWYLHDDYLPCSVLRMDYKGDATVFFILPNQGKMREIEEVLTPEMLMRWNNLLRKRNFYKKLELHLPKFSISGSYVLDQILPRLGFTDLFSKWADLSGITKQQKLEASKSFHKATLDVDEAGTEAAAATSFAIKFFSAQTNRHILRFNRPFLVVIFSTSTQSVLFLGKVVDPTKP	1.6
rKAL-312/313D (natural protein, human, UniProt P29622 45-427, looked up, kallistatin (SERPINA4), human, residues 45-427; double mutant of K312 and K313 to Asp; also called rKAL-K312/313D; source: E. coli BL21 (DE3), purified (HisTrap FF crude, SENP2 digestion, HiTrap SP)) GSPSLKIAPANADFAFRFYYLIASETPGKNIFFSPLSISAAYAMLSLGACSHSRSQILEGLGFNLTELSESDVHRGFQHLLHTLNLPGHGLETRVGSALFLSHNLKFLAKFLNDTMAVYEAKLFHTNFYDTVGTIQLINDHVKKETRGKIVDLVSELKKDVLMVLVNYIYFKALWEKPFISSRTTPKDFYVDENTTVRVPMMLQDQEHHWYLHDRYLPCSVLRMDYKGDATVFFILPNQGKMREIEEVLTPEMLMRWNNLLRKRNFYDDLELHLPKFSISGSYVLDQILPRLGFTDLFSKWADLSGITKQQKLEASKSFHKATLDVDEAGTEAAAATSFAIKFFSAQTNRHILRFNRPFLVVIFSTSTQSVLFLGKVVDPTKP	1.5
rKAL-R300D (natural protein, human, UniProt P29622 45-427, looked up, kallistatin (SERPINA4), human, residues 45-427; source: E. coli BL21 (DE3), purified (HisTrap FF crude, SENP2 digestion, HiTrap SP)) GSPSLKIAPANADFAFRFYYLIASETPGKNIFFSPLSISAAYAMLSLGACSHSRSQILEGLGFNLTELSESDVHRGFQHLLHTLNLPGHGLETRVGSALFLSHNLKFLAKFLNDTMAVYEAKLFHTNFYDTVGTIQLINDHVKKETRGKIVDLVSELKKDVLMVLVNYIYFKALWEKPFISSRTTPKDFYVDENTTVRVPMMLQDQEHHWYLHDRYLPCSVLRMDYKGDATVFFILPNQGKMREIEEVLTPEMLMDWNNLLRKRNFYKKLELHLPKFSISGSYVLDQILPRLGFTDLFSKWADLSGITKQQKLEASKSFHKATLDVDEAGTEAAAATSFAIKFFSAQTNRHILRFNRPFLVVIFSTSTQSVLFLGKVVDPTKP	1.8
